For each record, write down the corresponding Viscosity.
Assay method text: Viscosity of liquid oil (E) on a Brookfield viscometer
Type: physicochemical
Test conditions: at 25 degrees C., No. 2 spindle, 12 rpm
Give bare numbers, in mPa·s.

Hi! Can you tell me Viscosity for each of these compounds?
1. CCCCC(CC)C(=O)OCC(COC(=O)C(CC)CCCC)OC(=O)C(CC)CCCC (stereo not drawn)
2. CCCCCCCCCCCCCCCCOC(=O)C(CC)CCCC (stereo not drawn) [cetyl ethylhexanoate]

A)
1: 35; 2: 13

Hi! Can you tell me Viscosity for each of these compounds?
1. CC(C)CCCCCCCCCCCCCCCOC(=O)CCCCCCCCCCCCCCC(C)C [isostearyl isostearate]
2. CCCCC(CC)C(=O)OCC(C)(C)COC(=O)C(CC)CCCC (stereo not drawn) [neopentylglycol diethylhexanoate]

A)
1: 40; 2: 13

Hi! Can you tell me Viscosity for each of these compounds?
1. CCCCCCCCCCCCCCCC(=O)OC(C)C [isopropyl palmitate]
2. CC(C)CCCCCCCCCCCCCCCOC(=O)C(C)(C)C [isostearyl neopentanoate]

A)
7
15

Hi! Can you tell me Viscosity for each of these compounds?
1. CC(C)CCCCCCCCCCCCCCC(=O)OC(C)C [isopropyl isostearate]
2. CCCCC(CC)C(=O)OCC(COC(=O)C(CC)CCCC)(COC(=O)C(CC)CCCC)COC(=O)C(CC)CCCC (stereo not drawn) [pentaerythrityl tetraethylhexanoate]
3. CC(C)CCCCCCOC(=O)CCCCCC(C)C [isononyl isononanoate]

A)
1: 10; 2: 110; 3: 6

Each recorded value in this set is attributed to patent US20060204460A1.
